- Tested on: beta-TC6 cells
- protocol-notes: Insulin HTRF assay, relative activity Ar normalized to sunitinib
- Type: cell-based
- condition-info: Mus musculus, normalized to positive control sunitinib (5 µM = 100%), Table 10
Below, each entry is listed alongside its reported Emax.

# example entries with known answers
# compound-structure, readout-label, experimental-result
records = [
    ("CN(C)c1ccc(-c2cnc3cnc(-c4ccc(CO)cc4)cn23)cc1", "Emax", "50 to 100%"),
    ("CN(C)CCCNC(=O)c1ccc(-c2cn3c(-c4ccc(N(C)C)cc4)cnc3cn2)cc1", "Emax", "50 to 100%"),
    ("OCc1ccc(-c2cn3c(-c4cccc(Cl)c4)cnc3cn2)cc1", "Emax", "20 to 50%"),
    ("Nc1cccc(-c2ccc3nnc(-c4cccc(Cl)c4)n3c2)c1", "Emax", "50 to 100%"),
]

In: Bench note: what Emax did CNc1ccc2ncc(/C=C\CCCO)n2n1 show?
Out: 10 to 20%
